Each recorded value in this set is attributed to patent US5814612A.

test: Stability of retinoids in serum-free tissue culture medium; type: in vitro ADME; conditions: tissue culture medium, data not shown
QUANTITY KIND: half-life (h)

molecule="CC(C=CC=C(C)C(O)CO)=CC=C1C(C)=CCCC1(C)C (stereo not shown) [14HRR, 14-hydroxy-4,14-retro-retinol]" quantitative_readout=4

###

assay: Stability of retinoids in serum-free tissue culture medium; format: in vitro ADME
QUANTITY KIND: half-life

compound="CC(C=CC=C(C)C(O)CO)=CC=C1C(C)=CCCC1(C)C (stereo not shown) [14HRR, 14-hydroxy-4,14-retro-retinol]" quantity_kind=half-life result="~240 min"
